biological target: UniProt P23219
Sequence (P23219 24-599): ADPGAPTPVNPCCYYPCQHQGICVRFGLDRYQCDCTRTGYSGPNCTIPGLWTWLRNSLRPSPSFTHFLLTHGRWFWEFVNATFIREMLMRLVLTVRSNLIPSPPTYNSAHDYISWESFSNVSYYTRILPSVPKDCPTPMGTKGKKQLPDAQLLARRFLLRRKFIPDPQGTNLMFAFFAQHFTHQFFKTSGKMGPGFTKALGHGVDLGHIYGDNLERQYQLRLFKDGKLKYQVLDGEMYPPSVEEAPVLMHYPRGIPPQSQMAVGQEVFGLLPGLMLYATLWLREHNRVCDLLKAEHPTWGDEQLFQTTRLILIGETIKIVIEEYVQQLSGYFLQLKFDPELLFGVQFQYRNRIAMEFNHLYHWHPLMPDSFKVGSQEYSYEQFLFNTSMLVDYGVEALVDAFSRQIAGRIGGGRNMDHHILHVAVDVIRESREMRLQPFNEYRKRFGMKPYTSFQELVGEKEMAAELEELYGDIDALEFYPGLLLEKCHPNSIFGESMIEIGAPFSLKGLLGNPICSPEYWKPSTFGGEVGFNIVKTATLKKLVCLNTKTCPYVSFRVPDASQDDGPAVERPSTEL
pIC50: −log10 of the molar value.
measureName: pIC50

>>> experimentalresult("O=c1c(-c2ccc(O)cc2)coc2cc(O)cc(O)c12 [Genistein]")
5.11

----------
Molecular target: Adenosine A1 (h) (Homo sapiens, UniProt P30542)
Sequence (P30542 1-326): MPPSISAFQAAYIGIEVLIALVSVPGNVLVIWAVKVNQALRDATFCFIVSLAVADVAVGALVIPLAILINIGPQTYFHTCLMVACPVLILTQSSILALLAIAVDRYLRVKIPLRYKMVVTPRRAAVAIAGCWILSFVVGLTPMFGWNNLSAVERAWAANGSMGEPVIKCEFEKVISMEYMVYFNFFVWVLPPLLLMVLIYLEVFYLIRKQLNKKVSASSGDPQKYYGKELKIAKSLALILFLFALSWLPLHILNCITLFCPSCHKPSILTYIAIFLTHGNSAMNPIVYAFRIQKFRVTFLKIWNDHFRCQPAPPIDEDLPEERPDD
pIC50: −log10 of the molar value.
measureName: pIC50

>>> experimentalresult("O=c1c(-c2ccc(O)cc2)coc2cc(O)cc(O)c12")
5.04

----------
Molecular target: MAO-A (Rattus norvegicus, UniProt P21396)
Sequence (P21396 1-526): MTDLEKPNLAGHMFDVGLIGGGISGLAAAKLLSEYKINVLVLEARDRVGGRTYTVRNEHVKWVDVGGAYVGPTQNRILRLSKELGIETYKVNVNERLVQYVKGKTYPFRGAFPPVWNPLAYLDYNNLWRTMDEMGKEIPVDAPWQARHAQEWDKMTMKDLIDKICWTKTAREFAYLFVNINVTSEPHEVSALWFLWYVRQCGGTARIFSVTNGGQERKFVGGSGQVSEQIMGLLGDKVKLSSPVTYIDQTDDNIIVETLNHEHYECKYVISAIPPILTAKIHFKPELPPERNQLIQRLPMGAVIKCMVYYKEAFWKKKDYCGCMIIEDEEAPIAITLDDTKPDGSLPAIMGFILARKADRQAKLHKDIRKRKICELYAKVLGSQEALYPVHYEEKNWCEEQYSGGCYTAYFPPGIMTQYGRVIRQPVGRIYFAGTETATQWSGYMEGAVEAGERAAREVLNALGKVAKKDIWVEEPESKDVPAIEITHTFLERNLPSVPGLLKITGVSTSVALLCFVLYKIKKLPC
measureName: IC50 (µM)

>>> experimentalresult("O=c1c(-c2ccc(O)cc2)coc2cc(O)ccc12 [Daidzein, DAIDZEIN]")
9.18

----------
target: 5-HT2B (h) (Homo sapiens)
Sequence (P41595 whole entry): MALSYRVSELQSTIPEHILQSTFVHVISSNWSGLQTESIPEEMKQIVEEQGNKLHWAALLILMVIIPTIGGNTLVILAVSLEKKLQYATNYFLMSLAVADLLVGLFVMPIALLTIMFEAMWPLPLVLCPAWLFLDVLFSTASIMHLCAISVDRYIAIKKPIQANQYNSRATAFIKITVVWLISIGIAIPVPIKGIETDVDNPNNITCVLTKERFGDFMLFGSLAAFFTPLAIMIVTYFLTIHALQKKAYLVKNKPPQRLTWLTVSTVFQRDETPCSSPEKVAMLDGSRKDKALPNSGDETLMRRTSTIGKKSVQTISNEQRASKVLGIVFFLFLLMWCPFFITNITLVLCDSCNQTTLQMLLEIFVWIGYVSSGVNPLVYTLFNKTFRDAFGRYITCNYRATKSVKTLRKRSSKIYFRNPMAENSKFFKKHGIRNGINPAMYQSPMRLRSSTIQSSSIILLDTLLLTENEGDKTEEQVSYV
measureName: IC50 (nM)

>>> experimentalresult("O=c1c(-c2ccc(O)cc2)coc2cc(O)cc(O)c12 [Genistein]")
682

----------
biological target: PDE4D2 (h) (Homo sapiens, UniProt Q08499)
Sequence (Q08499 303-809): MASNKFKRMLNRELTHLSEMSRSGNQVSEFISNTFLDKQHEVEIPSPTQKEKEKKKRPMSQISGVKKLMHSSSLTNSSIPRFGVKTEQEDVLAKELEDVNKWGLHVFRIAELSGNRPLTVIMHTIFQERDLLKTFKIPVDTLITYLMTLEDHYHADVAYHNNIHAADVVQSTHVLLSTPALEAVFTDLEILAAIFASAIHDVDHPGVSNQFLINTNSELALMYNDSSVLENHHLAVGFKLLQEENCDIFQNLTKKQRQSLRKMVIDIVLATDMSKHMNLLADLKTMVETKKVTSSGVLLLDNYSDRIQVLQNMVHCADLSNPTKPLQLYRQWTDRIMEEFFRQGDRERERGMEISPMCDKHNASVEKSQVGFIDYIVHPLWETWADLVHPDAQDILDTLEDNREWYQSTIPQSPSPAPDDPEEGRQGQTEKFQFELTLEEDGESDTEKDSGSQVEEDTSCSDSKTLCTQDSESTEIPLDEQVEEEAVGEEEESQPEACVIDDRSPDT
measureName: IC50 (nM)

>>> experimentalresult("O=c1c(-c2ccc(O)cc2)coc2cc(O)cc(O)c12 [Genistein]")
738

----------
target: COX2 (h) (Homo sapiens, UniProt P35354)
Sequence (P35354 18-604): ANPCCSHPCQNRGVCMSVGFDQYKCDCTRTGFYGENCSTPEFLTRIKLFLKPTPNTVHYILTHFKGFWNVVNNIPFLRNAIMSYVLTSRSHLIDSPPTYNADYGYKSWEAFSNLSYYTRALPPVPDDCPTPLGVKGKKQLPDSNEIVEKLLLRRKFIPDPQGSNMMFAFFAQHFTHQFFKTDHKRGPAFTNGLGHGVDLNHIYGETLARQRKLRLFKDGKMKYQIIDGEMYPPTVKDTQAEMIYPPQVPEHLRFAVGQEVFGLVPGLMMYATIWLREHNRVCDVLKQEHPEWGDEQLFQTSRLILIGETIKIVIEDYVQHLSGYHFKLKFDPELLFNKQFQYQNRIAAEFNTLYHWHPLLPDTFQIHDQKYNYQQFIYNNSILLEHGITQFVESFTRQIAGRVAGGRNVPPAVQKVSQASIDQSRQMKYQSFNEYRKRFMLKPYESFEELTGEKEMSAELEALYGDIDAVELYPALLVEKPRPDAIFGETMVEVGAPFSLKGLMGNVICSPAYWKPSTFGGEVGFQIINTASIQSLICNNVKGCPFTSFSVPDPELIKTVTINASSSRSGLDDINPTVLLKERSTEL
pIC50: −log10 of the molar value.
measureName: pIC50

>>> experimentalresult("O=c1c(-c2ccc(O)cc2)coc2cc(O)cc(O)c12")
4.87
